protocolSummary: Cell Viability - LYMP2-001 (AID 921);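 also: cells exposed to compound for 24 h at 37 °C; nearly all actives have a fitted effect of over 70% in size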
setupConditions: LYMP2-001 lymphoblastoid cell viability; series mostly up to 92.2 µM
Records with an inconclusive call do not appear. The source made the active and inactive calls. Calls follow the shape of the dose curve; as a rule, active = well fitted cell-killing curve with a large enough effect; inconclusive = small, poorly fitted or top-dose-only effect; inactive = no such curve, though single readings can be large or run the other way. Peptide text beside a SMILES is read from it.
Can you answer with just one of these options? active, inactive

compound	classification
CN(C)c1ccc2nc3ccc(=[N+](C)C)cc-3sc2c1	active

Problem: Which outcome was entered for the compound `CCCc1cc(=O)[nH]c(=S)[nH]1` in this test?
Solution: inactive

Problem: Which outcome was entered for the compound `NS(=O)(=O)c1cc(C(=O)O)c(NCc2ccco2)cc1Cl` in this test?
Solution: inactive

Problem: Which outcome was entered for the compound `CC(=O)Nc1ccc(O)cc1` in this test?
Solution: inactive

Problem: Which outcome was entered for the compound COC(=O)[C@H](Cc1ccccc1)NC(=O)[C@@H](N)CC(=O)O (H-Asp-Phe-OMe) in this test?
Solution: inactive

Problem: Which outcome was entered for the compound `CS(=O)(=O)OCCCCOS(C)(=O)=O` in this test?
Solution: inactive

Problem: Which outcome was entered for the compound `c1ccc2[nH]c(-c3cscn3)nc2c1` in this test?
Solution: inactive

###

System: CP192
protocolSummary: qHTS profiling for inhibitors of Plasmodium falciparum proliferation (AID 504749); also: nearly all actives have a fitted effect of over 60% in size
setupConditions: P. falciparum in erythrocytes, SYBR Green DNA, 72 h; series mostly up to 28.7 µM
Results filed as inconclusive are left out. Activity calls are given as the source filed them. Calls come from the whole dose curve; as a rule, active = well fitted inhibition curve with a large enough effect; inconclusive = small, poorly fitted or top-dose-only effect; inactive = flat fitted curve, though single readings scatter.
Can you answer with just one of these options? active, inactive

Some solved entries appear below for comparison.
compound	classification
Cc1nc2n(c(=O)c1CCN1CCC(c3noc4cc(F)ccc34)CC1)CCCC2	inactive
CN(C)c1ccc2nc3ccc(=[N+](C)C)cc-3sc2c1	active
COc1ccc2cc([C@H](C)C(=O)O)ccc2c1	inactive

Problem: Which outcome was entered for the compound `Cc1cc(=O)oc2cc(O)ccc12` in this test?
Solution: inactive

###

Tested on: ICS
protocolSummary: qHTS profiling for inhibitors of Plasmodium falciparum proliferation (AID 504749); also: nearly all actives have a fitted effect of over 60% in size; also: potency is read from the fitted curve at half-maximal effect
setupConditions: P. falciparum in erythrocytes, SYBR Green DNA, 72 h; series mostly up to 28.7 µM
Records with an inconclusive call do not appear. Activity calls are given as the source filed them. The call rests on the fitted dose curve; in most records, active means well fitted inhibition curve with a large enough effect; inconclusive means small, poorly fitted or top-dose-only effect; inactive means flat fitted curve, though single readings scatter.
measuredEndpoint: Potency

compound	Potency
COc1ccc(C2(C#N)CCC(C(=O)O)CC2)cc1OC1CCCC1 (centres undefined)	inactive
C[Se]CCC(N)C(=O)O (centres undefined)	inactive
CC1(C)CCC(C)(C)c2cc(NC(=O)c3ccc(C(=O)O)cc3)ccc21	inactive
CN1CCC(=C2c3ccccc3CCc3sccc32)CC1	8.91 µM (active)
CCN(CCO)CCCC(C)Nc1ccnc2cc(Cl)ccc12 (centres undefined)	inactive

Problem: I'd like to know its Potency. The compound in question is `N[C@@H](Cc1cc(I)c(Oc2cc(I)c(O)c(I)c2)c(I)c1)C(=O)O`
Solution: inactive

Problem: I'd like to know its Potency. The compound in question is `CN(C)C(=O)COC(=O)Cc1ccc(OC(=O)c2ccc(N=C(N)N)cc2)cc1`
Solution: inactive

Problem: I'd like to know its Potency. The compound in question is Clc1ccc(C(Cn2ccnc2)OCc2ccsc2Cl)c(Cl)c1 (centres undefined)
Solution: 1 µM (active)

Problem: I'd like to know its Potency. The compound in question is `Cc1nc(Nc2ncc(C(=O)Nc3c(C)cccc3Cl)s2)cc(N2CCN(CCO)CC2)n1`
Solution: 7.08 µM (active)

Problem: I'd like to know its Potency. The compound in question is `CCN(CC)CCOc1ccc(Cc2ccccc2)cc1`
Solution: inactive

###

Tested on: CP211
protocolSummary: qHTS profiling for inhibitors of Plasmodium falciparum proliferation (AID 504749); also: nearly all actives have a fitted effect of over 60% in size
setupConditions: P. falciparum in erythrocytes, SYBR Green DNA, 72 h; series mostly up to 28.7 µM
Records with an inconclusive call do not appear. Active and inactive are the calls of the source. Calls follow the shape of the dose curve; as a rule, active = well fitted inhibition curve with a large enough effect; inconclusive = small, poorly fitted or top-dose-only effect; inactive = flat fitted curve, though single readings scatter.
Can you answer with just one of these options? 1 (yes) (active), 0 (no) (inactive)

Some solved entries appear below for comparison.
molecule	classification
CCCCc1ccc2nc(NC(=O)OC)[nH]c2c1	0 (no)
O=C(CS(=O)Cc1ccco1)NCC=CCOc1cc(CN2CCCCC2)ccn1 (centres undefined)	0 (no)
CC(C)c1ccc2oc3nc(N)c(C(=O)O)cc3c(=O)c2c1	0 (no)
CN(C)C(=O)COC(=O)Cc1ccc(OC(=O)c2ccc(N=C(N)N)cc2)cc1	0 (no)
CC(C)(S)[C@@H](N)C(=O)O	0 (no)
COc1ccc2cc([C@H](C)C(=O)O)ccc2c1	0 (no)
CN1C(C(=O)Nc2ccccn2)=C(O)c2sccc2S1(=O)=O	0 (no)
O=C(O)c1cccnc1Nc1cccc(C(F)(F)F)c1	0 (no)
CCN(CC)CCOc1ccc(Cc2ccccc2)cc1	0 (no)
O=C(O)CCNC(=O)c1ccc(N=Nc2ccc(O)c(C(=O)O)c2)cc1	0 (no)

Problem: Which outcome was entered for the molecule `CCCCCCCCCCCCCCCCCCCCCCO` in this test?
Solution: 0 (no)

###

protocolSummary: NS1 protein of Zika virus - qHTS assay to identify small molecule inhibitors in human HEK 293 cells (AID 1347053);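 also: plate controls were infected untreated cells for no effect and uninfected cells for full effect; nearly all actives have a fitted effect of over 55% in size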
setupConditions: HEK293 ZIKV MR766 infection, NS1 TR-FRET, 24 h; series mostly up to 46.1 µM
Results filed as inconclusive are left out. The source made the active and inactive calls. The call rests on the fitted dose curve; in most records, active means well fitted inhibition curve with a large enough effect; inconclusive means small, poorly fitted or top-dose-only effect; inactive means no such curve, though single readings can be large or run the other way.
Can you answer with just one of these options? active, inactive

compound	classification
Oc1ccc(-c2nc(-c3ccc(F)cc3)c(-c3ccncc3)[nH]2)cc1	inactive
CC(C)Oc1ccc2c(=O)c(-c3ccccc3)coc2c1	inactive
COc1ccc(C2(C#N)CCC(C(=O)O)CC2)cc1OC1CCCC1 (stereo not given)	inactive
Cc1nc2n(c(=O)c1CCN1CCC(c3noc4cc(F)ccc34)CC1)CCCC2	inactive
Nc1ccn([C@@H]2O[C@H](CO)[C@@H](O)C2O)c(=O)n1 (stereo not given in full)	inactive

Problem: Which outcome was entered for the compound Cc1c(OCC(F)(F)F)ccnc1CS(=O)c1nc2ccccc2[nH]1 (stereo not given) in this test?
Solution: inactive

Problem: Which outcome was entered for the compound `NCCCCNCCCN` in this test?
Solution: inactive

Problem: Which outcome was entered for the compound `CCCCCCCCOc1ccccc1C(=O)Nc1ccc(C(=O)OCC[N+](C)(CC)CC)cc1` in this test?
Solution: inactive

###

protocolSummary: High-throughput drug toxicity screening in the BPDCN cell line Cal-1 (AID 1224825);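 also: cells exposed to compounds for 48 h; 100% = DMSO and 0% = bortezomib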
setupConditions: Cal-1 BPDCN cell viability, qHTS; at 45.8 µM (top of the series) unless noted
measuredEndpoint: viability (% of control) (%)
// note: answer is a bare numeric in %

Examples with answers:
compound	measureUnit	endpointResult
O=c1cc(N2CCOCC2)oc2c(-c3ccccc3)cccc12	%	36.2
CC(C)c1ccc2oc3nc(N)c(C(=O)O)cc3c(=O)c2c1	%	97.4
CC(=O)NC[C@H]1CN(c2ccc(N3CCOCC3)c(F)c2)C(=O)O1	%	105
O=C(NCC1CCCCN1)c1cc(OCC(F)(F)F)ccc1OCC(F)(F)F (stereo not given)	%	12.9
CN(C)c1ccc2nc3ccc(=[N+](C)C)cc-3sc2c1	%	8.34
O=C(CS(=O)Cc1ccco1)NCC=CCOc1cc(CN2CCCCC2)ccn1 (stereo not given)	%	112

Problem: I'd like to know its viability (% of control). The compound in question is `CN1C(C(=O)Nc2ccccn2)=C(O)c2sccc2S1(=O)=O`
Solution: 90.4

Problem: I'd like to know its viability (% of control). The compound in question is `CC(C)Oc1ccc2c(=O)c(-c3ccccc3)coc2c1`
Solution: 102

Problem: I'd like to know its viability (% of control). The compound in question is CC1Cc2ccccc2N1NC(=O)c1ccc(Cl)c(S(N)(=O)=O)c1 (stereo not given)
Solution: 104

Problem: I'd like to know its viability (% of control). The compound in question is `CC(C)c1nc(CN(C)C(=O)N[C@H](C(=O)N[C@@H](Cc2ccccc2)C[C@H](O)[C@H](Cc2ccccc2)NC(=O)OCc2cncs2)C(C)C)cs1`
Solution: 94.9

###

subjectOfTest: Phospholipid hydroperoxide glutathione peroxidase GPX4 (Homo sapiens) (UniProt P36969)
Sequence (P36969 whole entry, looked up): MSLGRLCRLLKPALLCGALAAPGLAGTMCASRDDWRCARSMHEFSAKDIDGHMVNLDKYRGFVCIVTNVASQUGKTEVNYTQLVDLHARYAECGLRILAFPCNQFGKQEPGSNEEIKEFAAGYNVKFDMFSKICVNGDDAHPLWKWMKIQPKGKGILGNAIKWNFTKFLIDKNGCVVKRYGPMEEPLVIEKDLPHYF
protocolSummary: Primary qHTS Assay for Inhibitors of Recombinant Selenoprotein Glutathione Peroxidase 4 (GPX4) (AID 1845192); also: nearly all actives have a fitted effect of over 65% in size
setupConditions: recombinant GPX4, GR-coupled NADPH fluorescence, 15 min; series mostly up to 50 µM
Inconclusive results are not listed. Active and inactive are the calls of the source. The call rests on the fitted dose curve; in most records, active means well fitted inhibition curve with a large enough effect; inconclusive means small, poorly fitted or top-dose-only effect; inactive means flat fitted curve, though single readings scatter.
measuredEndpoint: outcome

molecule	outcome
COc1cc2c(cc1OC)C1CC(=O)C(CC(C)C)CN1CC2 (centres undefined)	inactive
CCC(C)(Oc1ccc(C2(c3ccc(OC(C)(CC)C(=O)O)cc3)CCCCC2)cc1)C(=O)O (centres undefined)	inactive
CC[C@]1(O)C[C@H]2CN(CCc3c([nH]c4ccccc34)[C@@](C(=O)OC)(c3cc4c(cc3OC)N(C=O)[C@H]3[C@@](O)(C(=O)OC)[C@H](OC(C)=O)[C@]5(CC)C=CCN6CC[C@]43[C@@H]65)C2)C1	inactive
O=C1NC(=O)C(c2ccccc2[N+](=O)[O-])=C1Nc1ccc(O)c(Cl)c1	inactive

Problem: I'd like to know its outcome. The molecule in question is `O=C(NCCO[N+](=O)[O-])c1cccnc1`
Solution: inactive

Problem: I'd like to know its outcome. The molecule in question is CC(S)C(=O)NCC(=O)O (centres undefined)
Solution: inactive
